SYSTEM TESTED: T1, recombinant human IL-23 (human, UniProt Q9NPF7 20-189; P29460 23-328)
T1 construct: also called hIL-23
T1 sequence 1: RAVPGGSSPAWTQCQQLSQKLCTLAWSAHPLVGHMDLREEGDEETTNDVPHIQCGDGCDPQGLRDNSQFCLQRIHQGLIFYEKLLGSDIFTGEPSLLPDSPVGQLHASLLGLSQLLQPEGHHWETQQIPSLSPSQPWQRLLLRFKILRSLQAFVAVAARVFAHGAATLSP
T1 sequence 2: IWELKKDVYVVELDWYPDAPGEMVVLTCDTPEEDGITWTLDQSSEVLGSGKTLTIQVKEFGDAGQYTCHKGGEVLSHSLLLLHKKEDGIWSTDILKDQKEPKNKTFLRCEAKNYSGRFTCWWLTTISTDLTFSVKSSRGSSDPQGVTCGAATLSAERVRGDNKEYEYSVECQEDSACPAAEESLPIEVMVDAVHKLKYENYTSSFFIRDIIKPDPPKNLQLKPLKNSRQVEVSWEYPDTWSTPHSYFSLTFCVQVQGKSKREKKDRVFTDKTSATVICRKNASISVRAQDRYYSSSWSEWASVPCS
ASSAY: SPR (Biacore T100), tissue culture supernatant antibody captured on anti-human IgG, IL-23 analyte
Listed next: entries and their corresponding kon.
Give just the number in M⁻¹ s⁻¹; leave the unit off.

BINDER	kon (M⁻¹ s⁻¹)
A3M0 (antibody, human IgG1, kappa, V domains shown, Full length chains; also called humanized mAb A3M0) VH: QVQLVQSGAEVKKPGSSVKVSCKASGYTFTSYGITWVRQAPGQGLEWMGENYPRSGNTYYNEKFKGRVTITADKSTSTAYMELSSLRSEDTAVYYCARSEFISTVVAPYYYALDYWGQGTLVTVSS VL: DIVMTQSPDSLAVSLGERATINCKASKKVTIFGSISALHWYQQKPGQPPKLIYNGAKLESGVPDRFSGSGSGTDFTLTISSLQAEDVAVYYCLQNKEVPYTFGGGTKVEIKR	1.38e+06

Lab note: next binder to report on.
# get_value(readout='kon', item= A10.5M4 (antibody, V domains shown) VH: QVQLVQSGAEVKKPGSSVKVSCKASGYTFASYGITWVRQAPGQGLEWMGENYPRSGNTYYNEKFKGRVTITADKSTSTAYMELSSLRSEDTAVYYCARSEFISTVVAPYYYALDYWGQGTLVTVSS VL: DIVMTQSPDSLAVSLGERATINCKASKKVTIFGSTSALHWYQQKPGQPPKLIYNGAKPESGVPDRFSGSGSGTDFTLTISSLQAEDVAVYYCLQNKEVPYTFGGGTKVEIK )
2.08e+06
